Origin of measurements: patent US20240148821A1

biological target: protein-protein interaction between Kras and SOS1 (biotin-tagged human Kras loaded with GDP, His-tagged human SOS1) (Homo sapiens (Human), UniProt P01116, G12D); test: Protein-protein interaction inhibition between Kras and SOS1 (KrasG12D-SOS PPI) using AlphaScreen; type: biochemical; conditions: AlphaScreen; biotin-tagged human Kras loaded with GDP, His-tagged human SOS1; read-out: KRAS G12D-SOS PPI IC50;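 note: kras produced in E. coli, Ni-coupled donor beads and streptavidin acceptor beads, excitation 680 nm with emission detected at 520–620 nm via singlet oxygen transfer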
Numbered stars: 1 amine (or outer) side, 2 acyl side, 3 side chain; on linkers, the order of the positions; unused ones are H or OH. Square brackets hold non-standard residues; d marks the D form. Peptide text beside a SMILES is read from it. hPhe(3,5-F2-4-CF3) = N[C@@H](CCc1cc(F)c(C(F)(F)F)c(F)c1)C(=O)O; hPhe(3-F,4-CF3) = N[C@@H](CCc1ccc(C(F)(F)F)c(F)c1)C(=O)O; NEtPhe(4-CF3) = CCN[C@@H](Cc1ccc(C(F)(F)F)cc1)C(=O)O; NMePhe(4-Cl) = CN[C@@H](Cc1ccc(Cl)cc1)C(=O)O; NMedβ3hAla = C[C@H](CC(=O)[*:2])N(C)[*:1]; Hyp = O=C(O)[C@@H]1C[C@@H](O)CN1; NMeI = CC[C@H](C)[C@H](NC)C(=O)O; NMeL = CN[C@@H](CC(C)C)C(=O)O; NMeA = CN[C@@H](C)C(=O)O; NMeAib = CNC(C)(C)C(=O)O; Ac5c = NC1(C(=O)O)CCCC1; Aze = O=C(O)[C@@H]1CCN1; Sar = CNCC(=O)O

>  <Compound>
CC(C)C[C@@H]1NC(=O)C(C)(C)N(C)C(=O)[C@H](CC(C)C)NC(=O)[C@H](CCc2ccc(C(F)(F)F)c(F)c2)NC(=O)CN(C)C(=O)[C@H](Cc2ccc(Cl)cc2)N(C)C(=O)CN(C)C(=O)CN(C)C(=O)[C@H](C(C)C)NC(=O)[C@H](CC(C)C)N(C)C(=O)C[C@@H](C)N(C)C1=O [Compound 956] (cyclo(L[NMeAib]L[NMedβ3hAla][NMeL]V[Sar][Sar][NMePhe(4-Cl)][Sar][hPhe(3-F,4-CF3)]))

>  <IC50 / nM>
80

$$$$
>  <Compound>
CCO[C@@H]1C[C@H]2C(=O)NC3(CCCC3)C(=O)N(C)[C@@H]([C@@H](C)CC)C(=O)N(C)[C@H](C)CC(=O)N(C)[C@@H](CC(C)C)C(=O)N[C@@H]([C@@H](C)CC)C(=O)N(C)[C@@H](C)C(=O)N3CC[C@H]3C(=O)N(CC)[C@@H](Cc3ccc(C(F)(F)F)cc3)C(=O)N(C)CC(=O)N[C@@H](CCc3cc(F)c(C(F)(F)F)c(F)c3)C(=O)N2C1 [Compound 374] (cyclo([Ac5c][NMeI][NMedβ3hAla][NMeL]I[NMeA][Aze][NEtPhe(4-CF3)][Sar][hPhe(3,5-F2-4-CF3)][Hyp](Et)))

>  <IC50 / nM>
6.5

$$$$
